B1: C9orf25 (parent)
chain: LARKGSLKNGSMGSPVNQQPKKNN

variants of: B1; experiment: protein stability index of a GFP-peptide fusion (GPS, HEK-293T) (PSI 1-6); higher = more stable; conditions: c terminus: a fixed tail appended;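 also: lentivirally expressed fusions sorted by FACS into six bins by GFP to DsRed ratio, PSI derived from sequencing read proportions per bin multiplied by bin number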

seq.string: LARKCSLKNGSMGSPVNQQPKKNN
protein stability index: 4.29
//
seq.string: LARKGSLKNGSMGSPVIQQPKKNN
protein stability index: 4.72
//
seq.string: LARKGSLKNGSDGSPVNQQPKKNN
protein stability index: 5.06
//
seq.string: LARKGSLKNGSMGSPVNQGPKKNN
protein stability index: 5.02
//
seq.string: LARKGSLKNNSMGSPVNQQPKKNN
protein stability index: 4.99
//
seq.string: LARKGSLKNGSMDSPVNQQPKKNN
protein stability index: 4.64
//
seq.string: LARKGSLKNGRMGSPVNQQPKKNN
protein stability index: 4.61
//
seq.string: LARKGSLKNGSMGSWVNQQPKKNN
protein stability index: 4.27
//
seq.string: LAKKGSLKNGSMGSPVNQQPKKNN
protein stability index: 4.33
//
seq.string: LARKGSLDNGSMGSPVNQQPKKNN
protein stability index: 4.2
//
seq.string: LARKGSLKNGTMGSPVNQQPKKNN
protein stability index: 4.81
//
seq.string: SARKGSLKNGSMGSPVNQQPKKNN
protein stability index: 5.53
//
seq.string: LARKGSLKFGSMGSPVNQQPKKNN
protein stability index: 4.21
